B1: Osa-1-4 twister ribozyme (parent)
chain: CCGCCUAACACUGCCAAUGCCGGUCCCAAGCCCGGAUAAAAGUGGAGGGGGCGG

# Variants of: B1
# experiment_notes: self-cleavage, relative activity (ratio to wild type); higher = more cleavage; co-transcriptional
Entries and their self-cleavage values follow.

[
  {
    "monomer_sequence": "CCGCCUAACACUCCCAAUGCAGGUCCCAAGCCCGGAUAAAAGUGGAGGGGGCGG [C21A G13C]",
    "self-cleavage": 0.03
  },
  {
    "monomer_sequence": "CCGCCUAACACUGCCAGUGCCGGUCCAAAGCCCGGAUAAAAGUGGAGGGGGCGG [A17G C27A]",
    "self-cleavage": 0.35
  },
  {
    "monomer_sequence": "CCGCCUAACACUGCCAAUGCCGGUCUCAAGCCCGGAUAAAAGUCGAGGGGGCGG [C26U G44C]",
    "self-cleavage": 0.92
  },
  {
    "monomer_sequence": "CCGCCUAACACUGCCAAUGCCGGUCCCAAGCCCGGAUUGAAGUGGAGGGGGCGG [A38U A39G]",
    "self-cleavage": 0.64
  },
  {
    "monomer_sequence": "CCGCCUAACACAGCCAAUGCCGGUCCCAAGCCCGGAUAAAAGUUGAGGGGGCGG [G44U U12A]",
    "self-cleavage": 0.11
  },
  {
    "monomer_sequence": "CCGCCUAUCACUCCCAAUGCCGGUCCCAAGCCCGGAUAAAAGUGGAGGGGGCGG [A8U G13C]",
    "self-cleavage": 0.03
  },
  {
    "monomer_sequence": "CCGCCUAACACUGCCCAUCCCGGUCCCAAGCCCGGAUAAAAGUGGAGGGGGCGG [A16C G19C]",
    "self-cleavage": 0.13
  },
  {
    "monomer_sequence": "CCGCCUAACACUGGGAAUGCCGGUCCCAAGCCCGGAUAAAAGUGGAGGGGGCGG [C14G C15G]",
    "self-cleavage": 0.22
  },
  {
    "monomer_sequence": "CCGCCUAACACUGCCAAUGCCGGUUCCACGCCCGGAUAAAAGUGGAGGGGGCGG [A29C C25U]",
    "self-cleavage": 0.03
  },
  {
    "monomer_sequence": "CCGCCUAAUACUGCCAAUGCCGGUCCCAAGCCUGGAUAAAAGUGGAGGGGGCGG [C33U C9U]",
    "self-cleavage": 0.39
  },
  {
    "monomer_sequence": "CCGCCUAACACUGCCAAUGCCGGUCCCAAUCCCGGAUAAAAGUUGAGGGGGCGG [G30U G44U]",
    "self-cleavage": 0.05
  },
  {
    "monomer_sequence": "CCGCCUAACACGGCCAAUGCCGGUCCCAAGCCCGAAUAAAAGUGGAGGGGGCGG [G35A U12G]",
    "self-cleavage": 0.06
  },
  {
    "monomer_sequence": "CCGCCUAACACUGCCAAUGCCGGUCCCAAGCCCGGAUAACAGGGGAGGGGGCGG [A40C U43G]",
    "self-cleavage": 0.07
  },
  {
    "monomer_sequence": "CCGCCUAACACUGCCAAUGCCGGUCCCACGCCCGGAUGAAAGUGGAGGGGGCGG [A29C A38G]",
    "self-cleavage": 0.04
  },
  {
    "monomer_sequence": "CCGCCUAACACGGCCAAUGCCGGUCCCAAGCCCGGAUAAAAGUGGUGGGGGCGG [A46U U12G]",
    "self-cleavage": 0.07
  },
  {
    "monomer_sequence": "CCGCCUAACACUUCCAAUACCGGUCCCAAGCCCGGAUAAAAGUGGAGGGGGCGG [G13U G19A]",
    "self-cleavage": 0.03
  },
  {
    "monomer_sequence": "CCGCCUCACACUGCCAAUGCCGGUCCCAAGCCGGGAUAAAAGUGGAGGGGGCGG [A7C C33G]",
    "self-cleavage": 0.02
  },
  {
    "monomer_sequence": "CCGCCUAACACUGCCAAUGCCGGGCCCAAGCCCGGAUAAAAAUGGAGGGGGCGG [G42A U24G]",
    "self-cleavage": 0.03
  },
  {
    "monomer_sequence": "CCGCCUAACACUGCCAAUGCCGGUCCCAAGGCCGGAUAAAAGUGGAGGGGGCGU [C31G G54U]",
    "self-cleavage": 0.19
  },
  {
    "monomer_sequence": "CCGCCUAACACUGCCUAUGCCGGUCCGAAGCCCGGAUAAAAGUGGAGGGGGCGG [A16U C27G]",
    "self-cleavage": 0.06
  },
  {
    "monomer_sequence": "CCGCCUAACACUGCCAAUGCCGGUCCCAAGCCCGGUUAAAAGUGGAGGAGGCGG [A36U G49A]",
    "self-cleavage": 0.19
  },
  {
    "monomer_sequence": "CCGCCUAACACUGCCAAUGCCGGUCCCAAGCCCGGAUAAAAGUGGAGGGGGUCG [C52U G53C]",
    "self-cleavage": 0.17
  },
  {
    "monomer_sequence": "CCGCCUAACACUGCCAAUGCCGGUCCCAAGCCCGGAUAAAAGUGCAAGGGGCGG [G45C G47A]",
    "self-cleavage": 0.05
  },
  {
    "monomer_sequence": "CCGCCUAACACUGCCAAUGCCGCUCCCAACCCCGGAUAAAAGUGGAGGGGGCGG [G23C G30C]",
    "self-cleavage": 0.02
  },
  {
    "monomer_sequence": "CCGCCUAACACUGCCAAUGCCGGUACCAAGCCCGGAUAAAAGUGGAGGGGGAGG [C25A C52A]",
    "self-cleavage": 0.14
  },
  {
    "monomer_sequence": "CCGCCUAACACUGCCAAUGCCGGUCCCAAGCCCGGAUAAAAGUCGAGGGCGCGG [G44C G50C]",
    "self-cleavage": 0.81
  },
  {
    "monomer_sequence": "CCGCCUAACACUGCCAAUGCCGGGCCCAAGCCCGGAUAAAAGUGGAGGGGGCGA [G54A U24G]",
    "self-cleavage": 0.03
  },
  {
    "monomer_sequence": "CCGCCUAACACUGCCAAUGCCGGUCCCAAGCUCGGAUAAAGGUGGAGGGGGCGG [A41G C32U]",
    "self-cleavage": 0.08
  },
  {
    "monomer_sequence": "CCGCCUAAGACUGCCAAUGCCGGUCCCAAGCCCCGAUAAAAGUGGAGGGGGCGG [C9G G34C]",
    "self-cleavage": 0.3
  },
  {
    "monomer_sequence": "CCGCCUAACACUGCCAAUGCCGGUCCCAAGCCCGGAUAUAAGUUGAGGGGGCGG [A39U G44U]",
    "self-cleavage": 0.9
  },
  {
    "monomer_sequence": "CCGCCUAACACUGCCAAUGCCGGUCCCAAGCCCGGAUAAGAGUGGAUGGGGCGG [A40G G47U]",
    "self-cleavage": 0.1
  },
  {
    "monomer_sequence": "CCGCCUAACACUGCCAAUGCCGGUCCCAAGCCCGGAGAGAAGUGGAGGGGGCGG [A39G U37G]",
    "self-cleavage": 1.01
  },
  {
    "monomer_sequence": "CCGCCUAACACUGGCAAUGCCGGUCCCAAGCCCGGAUAAAAGUGGAGUGGGCGG [C14G G48U]",
    "self-cleavage": 0.03
  },
  {
    "monomer_sequence": "CCGCCUAACACUGCCAAUGCCUGUCCCAAGCCUGGAUAAAAGUGGAGGGGGCGG [C33U G22U]",
    "self-cleavage": 1
  },
  {
    "monomer_sequence": "CCGCCUAACACUGACAAUGCCGGUCCCAAGCCUGGAUAAAAGUGGAGGGGGCGG [C14A C33U]",
    "self-cleavage": 0.06
  },
  {
    "monomer_sequence": "CCGCCUAACACUGCCAAUGCCGGUCCCAAGCCCGCAUAAAAGGGGAGGGGGCGG [G35C U43G]",
    "self-cleavage": 0.1
  },
  {
    "monomer_sequence": "CCGCCUAACACUGCAAAUGCCGGUCCCAAGCCCGGGUAAAAGUGGAGGGGGCGG [A36G C15A]",
    "self-cleavage": 0.85
  },
  {
    "monomer_sequence": "CCGCCUUACACUGCCAAUGCCGGUCCCCAGCCCGGAUAAAAGUGGAGGGGGCGG [A28C A7U]",
    "self-cleavage": 0.07
  },
  {
    "monomer_sequence": "CCGCCUAACACUGCCAAUGCCGGUUCCGAGCCCGGAUAAAAGUGGAGGGGGCGG [A28G C25U]",
    "self-cleavage": 0.11
  },
  {
    "monomer_sequence": "CCGCCUAACACUGCCAAUGCCGGUCCCAAGUCCGGUUAAAAGUGGAGGGGGCGG [A36U C31U]",
    "self-cleavage": 0.95
  },
  {
    "monomer_sequence": "CCGCCUAACACUGCCAAUGCCGGUCCCAAGUCCGGAUAAAAGUGGAGGGUGCGG [C31U G50U]",
    "self-cleavage": 0.6
  },
  {
    "monomer_sequence": "CCGCCUAACACUGCCAAUGCCGGUCGCAAGCCCGGAUAAAAGUGGAGGGGUCGG [C26G G51U]",
    "self-cleavage": 0.06
  },
  {
    "monomer_sequence": "CCGCCUAACACUGUCAAUGCCGGUCCCAACCCCGGAUAAAAGUGGAGGGGGCGG [C14U G30C]",
    "self-cleavage": 0.03
  },
  {
    "monomer_sequence": "CCGCCUAACACUGCCAAUGCCGGUCCCAAGCCCCCAUAAAAGUGGAGGGGGCGG [G34C G35C]",
    "self-cleavage": 0.11
  },
  {
    "monomer_sequence": "CCGCCUAACACUGCCAAUGCCGGUCCCAAGCACGGAUAAAAGUCGAGGGGGCGG [C32A G44C]",
    "self-cleavage": 0.07
  },
  {
    "monomer_sequence": "CCGCCUAACACUGCCAAUGCCGGUCCCAAGCCCGGAUACAACUGGAGGGGGCGG [A39C G42C]",
    "self-cleavage": 0.09
  }
]
